assayed-system: N-type voltage gated calcium channels (chicken brain synaptosomes) (Gallus gallus, UniProt A0A8V1AJW5)
Construct: K+-stimulated 45Ca influx; auxiliary alpha2delta and beta subunits present but not identified
Sequence (A0A8V1AJW5 1-2349): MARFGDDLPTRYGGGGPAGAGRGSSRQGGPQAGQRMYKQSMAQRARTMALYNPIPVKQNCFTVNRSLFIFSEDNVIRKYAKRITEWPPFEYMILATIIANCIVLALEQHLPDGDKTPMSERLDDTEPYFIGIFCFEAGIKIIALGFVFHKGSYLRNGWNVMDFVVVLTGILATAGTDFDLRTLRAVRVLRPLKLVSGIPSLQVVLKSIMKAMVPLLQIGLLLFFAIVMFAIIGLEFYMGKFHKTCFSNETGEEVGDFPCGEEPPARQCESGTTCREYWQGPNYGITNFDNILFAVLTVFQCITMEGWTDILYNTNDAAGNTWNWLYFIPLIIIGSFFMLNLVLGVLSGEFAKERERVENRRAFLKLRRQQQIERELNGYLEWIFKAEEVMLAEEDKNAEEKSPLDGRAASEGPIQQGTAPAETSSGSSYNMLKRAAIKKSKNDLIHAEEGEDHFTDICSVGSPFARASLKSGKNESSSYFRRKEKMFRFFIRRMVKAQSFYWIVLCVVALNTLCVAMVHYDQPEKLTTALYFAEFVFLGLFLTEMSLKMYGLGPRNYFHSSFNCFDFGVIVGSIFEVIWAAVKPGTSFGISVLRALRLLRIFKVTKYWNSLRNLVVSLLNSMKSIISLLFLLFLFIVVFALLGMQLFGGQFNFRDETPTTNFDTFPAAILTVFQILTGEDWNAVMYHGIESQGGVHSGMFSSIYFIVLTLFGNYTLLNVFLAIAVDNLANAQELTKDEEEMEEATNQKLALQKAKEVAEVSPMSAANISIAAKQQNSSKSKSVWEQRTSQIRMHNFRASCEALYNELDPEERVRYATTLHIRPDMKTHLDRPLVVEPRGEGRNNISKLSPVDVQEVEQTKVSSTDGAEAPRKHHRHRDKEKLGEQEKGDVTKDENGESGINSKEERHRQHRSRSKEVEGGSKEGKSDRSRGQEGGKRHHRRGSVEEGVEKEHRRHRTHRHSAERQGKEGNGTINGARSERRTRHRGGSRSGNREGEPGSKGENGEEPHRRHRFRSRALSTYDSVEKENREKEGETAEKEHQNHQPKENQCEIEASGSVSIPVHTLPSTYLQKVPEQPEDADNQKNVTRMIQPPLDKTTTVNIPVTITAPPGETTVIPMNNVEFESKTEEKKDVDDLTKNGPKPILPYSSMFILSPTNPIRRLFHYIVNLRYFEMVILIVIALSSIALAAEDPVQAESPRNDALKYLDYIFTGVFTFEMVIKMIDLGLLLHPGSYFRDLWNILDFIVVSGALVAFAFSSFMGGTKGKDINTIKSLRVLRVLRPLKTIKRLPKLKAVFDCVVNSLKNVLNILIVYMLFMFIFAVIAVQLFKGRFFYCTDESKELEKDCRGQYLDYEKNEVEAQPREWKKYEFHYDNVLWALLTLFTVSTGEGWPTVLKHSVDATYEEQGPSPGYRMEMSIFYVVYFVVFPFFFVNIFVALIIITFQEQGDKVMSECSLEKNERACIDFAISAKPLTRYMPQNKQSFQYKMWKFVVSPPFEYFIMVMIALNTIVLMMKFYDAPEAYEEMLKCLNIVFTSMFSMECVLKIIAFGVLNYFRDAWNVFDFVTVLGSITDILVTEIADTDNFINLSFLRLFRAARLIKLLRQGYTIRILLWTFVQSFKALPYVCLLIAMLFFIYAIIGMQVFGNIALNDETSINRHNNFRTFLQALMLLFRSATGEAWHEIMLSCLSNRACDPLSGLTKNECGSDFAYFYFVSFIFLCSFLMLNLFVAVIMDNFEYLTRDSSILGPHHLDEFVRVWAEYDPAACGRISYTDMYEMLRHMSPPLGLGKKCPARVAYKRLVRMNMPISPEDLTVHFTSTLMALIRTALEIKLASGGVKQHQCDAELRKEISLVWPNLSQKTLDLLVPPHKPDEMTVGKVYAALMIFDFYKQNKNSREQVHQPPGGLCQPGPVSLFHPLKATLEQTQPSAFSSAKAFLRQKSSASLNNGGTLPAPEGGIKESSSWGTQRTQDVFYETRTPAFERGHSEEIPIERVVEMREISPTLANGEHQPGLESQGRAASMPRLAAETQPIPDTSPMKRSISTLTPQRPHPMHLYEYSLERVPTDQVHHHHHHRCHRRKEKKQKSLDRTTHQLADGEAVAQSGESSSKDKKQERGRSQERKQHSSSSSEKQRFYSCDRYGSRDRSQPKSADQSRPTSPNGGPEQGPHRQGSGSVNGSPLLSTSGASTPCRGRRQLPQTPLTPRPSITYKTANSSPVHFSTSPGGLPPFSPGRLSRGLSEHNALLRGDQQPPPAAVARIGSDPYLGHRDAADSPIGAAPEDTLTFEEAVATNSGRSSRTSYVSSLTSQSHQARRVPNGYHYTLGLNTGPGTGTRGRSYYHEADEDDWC
protocol-description: Chick Whole Brain Synaptosomal ^45 Calcium Flux Assay (inhibition of potassium stimulated calcium influx)
condition-description: 20 mM KCl stimulated minus 3 mM KCl basal; 5 min drug pre-incubation, room temperature; 30-second incubation; read-out: Inhibition of ^45 Ca^+2 Influx in Chick Synaptosomes IC50
property-measured: IC50 (µM)
Respond with the bare value in µM.

Known results for molecules:
// CC(CCCN(Cc1ccccc1)Cc1ccccc1)(c1ccc(O)c(CN2CCCCCC2)c1)c1ccc(O)c(CN2CCCCCC2)c1 : IC50 value = 4.2

Form: molecule = O=C(NCC(c1ccc(O)c(CN2CCCCCC2)c1)c1ccc(O)c(CN2CCCCCC2)c1)c1ccccc1 ; IC50 = 2.4

Entry CC(NC(=O)c1ccccc1)C(c1ccc(O)c(CN2CCCCCC2)c1)c1ccc(O)c(CN2CCCCCC2)c1 (stereo not drawn) , IC50 reported as 2.2

For reference, reported IC50 for O=C(NCC(c1ccc(O)c(CN2CCCCCC2)c1)c1ccc(O)c(CN2CCCCCC2)c1)C(c1ccccc1)c1ccccc1 stands at 2.4

New cases:
Short answer for CC(CCC(O)(c1ccccc1)c1ccccc1)(c1ccc(O)c(CN2CCCCCC2)c1)c1ccc(O)c(CN2CCCCCC2)c1 : IC50 was 1.4

Consider CC(CCC(c1ccccc1)c1ccccc1)(c1ccc(O)c(CN2CCCCCC2)c1)c1ccc(O)c(CN2CCCCCC2)c1 . Its measured IC50 is 3.15
